# measurement.protocol: method code SF, from Hansch, C. & Leo, A. (1987). Log P database [Dataset]. Pomona College Medicinal Chemistry Project.
# study.conditions: pH 2.0
readout.label: logD
Please respond with just the number, no unit label.

Return reported logD; argument: O=C(O)c1ccc[nH]1
0.85

Return reported logD; argument: O=C1CC(=O)NC(=O)N1
-1.41

Return reported logD; argument: O=C(O)c1ncccc1O
-1.27

Return reported logD; argument: CN(C)/N=N/c1ccccc1I
3.5

Return reported logD; argument: O=C(O)c1cc2ccccc2[nH]1
2.31

Return reported logD; argument: CCCCc1ccc(C(=O)O)nc1
0.68

Return reported logD; argument: O=C(O)c1nccc2ccccc12
-0.53

Return reported logD; argument: CCC1(CC2COc3ccccc3O2)C(=O)NC(=O)NC1=O (centres undefined)
1.85

Return reported logD; argument: Cn1cc(C(=O)O)c2ccccc21
1.76

* * *

For each record, write down the corresponding logP.
# measurement.protocol: method code SF, from Hansch, C. & Leo, A. (1987). Log P database [Dataset]. Pomona College Medicinal Chemistry Project.
Please respond with just the number, no unit label.

Return reported logP; argument: CNC(=O)Oc1cc(C)c(Cl)cc1C
2.95

Return reported logP; argument: CC(=O)Nc1cccc(NC(C)=O)c1
0.5

Return reported logP; argument: O=C(O)c1cc(=O)c2c(OCC(O)COc3cccc4oc(C(=O)O)cc(=O)c34)cccc2o1
1.92

Return reported logP; argument: CCOC(=O)C(=Cc1ccccc1C)C(=O)OCC
3.22

Return reported logP; argument: CS(=O)c1ccccc1 (stereo not given)
0.55

Return reported logP; argument: CC(=O)CCC(=O)N(C)c1ccc(S(=O)(=O)N(C)C)cc1
0.2

Return reported logP; argument: Nc1ccc(I)cc1
2.34

Return reported logP; argument: CC(C)(C)c1ccccc1OCC(=O)O
3.33

Return reported logP; argument: NC(=O)c1ncn2c(=O)n(CCCl)nnc12
-0.47

Return reported logP; argument: CCCCNC(=O)n1c(NC(=O)OC)nc2ccccc21
2.42

Return reported logP; argument: COC(=O)c1ccsc1
1.76

Return reported logP; argument: CC(=O)Nc1ccc(OC(C)=O)cc1
0.8

Return reported logP; argument: [O-][N+](=Cc1c(Cl)cccc1Cl)c1ccccc1
2.16

Return reported logP; argument: Cc1n[nH]cc1[N+](=O)[O-]
0.19

Return reported logP; argument: CCOC(=O)C(=Cc1ccccc1F)C(=O)OCC
3.04

Return reported logP; argument: c1ccc2cnncc2c1
0.57

Return reported logP; argument: N#Cc1c[nH]c2ccccc12
2.32

Return reported logP; argument: CC(C)(O)C(Cl)(Cl)Cl
2.03

Return reported logP; argument: COc1cccc(C(=O)N(C)C)c1
1

Return reported logP; argument: Nc1ncnc2c1ncn2[C@@H]1O[C@H](CO)[C@@H](O)[C@@H]1O
-1.11

Return reported logP; argument: CCC(C)(C)C
3.82

Return reported logP; argument: CCOC(=O)c1ccc(NC(=O)C(F)(F)F)cc1
2.25

Return reported logP; argument: CCOC(=O)N=[N+]([O-])c1ccccc1
2.53

Return reported logP; argument: COc1cc(C=NOC(=O)c2ccccc2OC)ccc1OCCO
2.84

Return reported logP; argument: COc1ccc(OC(C)=O)cc1
1.54

Return reported logP; argument: CCOP(=S)(OCC)SCSCC
3.24

Return reported logP; argument: Cc1cc(C)cc(OC(=O)CNC(=O)c2ccccc2)c1
3.4

Return reported logP; argument: CC(C)CO
0.65

Return reported logP; argument: CC(=O)Sc1ccccc1
2.23

Return reported logP; argument: C=C(C)CC1(CC)C(=O)NC(=S)NC1=O
2.19
